Target: MMP-13 (Homo sapiens)
Construct: made in house; host or cells: baculovirus / insect cells
Assay: In vitro MMP inhibition, Ki determination (fluorogenic substrate II)
Type: biochemical
Conditions: value not in parenthesis; read-out: MMP-13 Ki
measure-name: Ki (nM)

CCCCOc1ccc(N2CCN(S(=O)(=O)C3(C(=O)NO)CCN(C(C)(C)C)CC3)CC2)c(F)c1: 1.91
CCCCOc1ccc(N2CCN(S(=O)(=O)C3(C(=O)NO)CCN(c4ccc(C)cn4)CC3)CC2)cc1: 1.67
O=C(NO)C1(S(=O)(=O)N2CCN(c3ncc(-c4ccc(Cl)cc4)cn3)CC2)CCOCC1: 0.25
CCCCOc1ccc(N2CCN(S(=O)(=O)C3(C(=O)NO)CCN(C(=O)NCCOC)CC3)CC2)cc1: 0.43
O=C(NO)C1(S(=O)(=O)N2CCN(c3ccc(COCC(F)(F)C(F)F)cc3)CC2)CCOCC1: 0.79

(P) Cc1ccc(-c2ccc(N3CCN(S(=O)(=O)C4(C(=O)NO)CCOCC4)CC3)cc2)cc1
(Q) COCCSc1ccc(N2CCN(S(=O)(=O)C3(C(=O)NO)CCOCC3)CC2)cc1
(R) CCCc1nnc(N2CCN(S(=O)(=O)C3(C(=O)NO)CCOCC3)CC2)s1
-- ask In this exercise, place the 3 molecules in ascending sequence of their recorded Ki. A ranking is expressed here by listing the labels in the requested order.
-- reply P, Q, R
